# Tested on: PRXF DU-145
# Assay Text: 2D cell proliferation assay (CellTiter-Blue)
# Format: cell-based
# Conditions Used: Homo sapiens, 72 h; cell line PRXF DU-145; three days of treatment; read-out: IC (abs. IC50)
# Procedure: Viability of the cells was analyzed by using the CellTiter-Blue® Cell Viability Assay (Promega), and was performed according to manufacturer's instructions. Briefly, cells were harvested from exponential phase cultures (Chapter 6.6), counted and plated in 96-well flat-bottom microtiter plates at a cell density of 4,000-60,000 cells/well in a volume of 140 μl per well. […] The overall potency of a compound was determined by the geometric mean IC50/IC70 values of all individual IC50/IC70 values. […]
Quantity Kind: IC50 (nM)
Report only the number, with the unit nM understood.

Reported IC50 for CN1CCN(c2ccc(Nc3ncc4cc(C(=O)N(C)C)n(C56CC(C5)C6)c4n3)cc2)CC1 [SPV113] was 253

* * *

# Assay Text: Nonclinical pharmacokinetic study, IV and oral, in rats
# Conditions Used: rat, plasma, iv, 30 mg/kg
Quantity Kind: half-life (h)
Report only the number, with the unit h understood.

Reported half-life for `CN1CCN(c2ccc(Nc3ncc4cc(C(=O)N(C)C)n(C56CC(C5)C6)c4n3)cc2)CC1` was 5.73

* * *

# System: GXA MKN45
# Assay Text: 2D cell proliferation assay (CellTiter-Blue)
# Assay type: cell-based
# Conditions Used: Homo sapiens, MKN-45, 72 h; cell line GXA MKN45; three days of treatment; read-out: IC (abs. IC50)
Quantity Kind: pIC50
Friendly reminder that pIC50 comes from taking -log10 of the concentration in mol/L.

Reported pIC50 for CN1CCN(c2ccc(Nc3ncc4cc(C(=O)N(C)C)n(C56CC(C5)C6)c4n3)cc2)CC1 [SPV113] was 5.97

* * *

# Assay Text: Nonclinical pharmacokinetic study, IV and oral, in rats
# Conditions Used: rat, plasma, iv, 30 mg/kg
Quantity Kind: clearance
A bare number is not enough; add the unit after it.

Reported clearance for CN1CCN(c2ccc(Nc3ncc4cc(C(=O)N(C)C)n(C56CC(C5)C6)c4n3)cc2)CC1 [SPV113] was 18.7 mL/min/kg

* * *

# Test system: LEXFAM MV4-11
# Assay Text: 2D cell proliferation assay (CellTiter-Blue)
# Type: cell-based
# Conditions Used: Homo sapiens, 72 h; cell line LEXFAM MV4-11; three days of treatment; read-out: IC (abs. IC50)
pIC50: −log10 of the molar value.
Quantity Kind: pIC50

Reported pIC50 for CN1CCN(c2ccc(Nc3ncc4cc(C(=O)N(C)C)n(C56CC(C5)C6)c4n3)cc2)CC1 [SPV113] was ≥ 8.00

* * *

# Experimental System: CDK6-CYCLIND3 (Homo sapiens, UniProt Q00534)
# Construct: purchased Carna
# Sequence (Q00534 whole entry): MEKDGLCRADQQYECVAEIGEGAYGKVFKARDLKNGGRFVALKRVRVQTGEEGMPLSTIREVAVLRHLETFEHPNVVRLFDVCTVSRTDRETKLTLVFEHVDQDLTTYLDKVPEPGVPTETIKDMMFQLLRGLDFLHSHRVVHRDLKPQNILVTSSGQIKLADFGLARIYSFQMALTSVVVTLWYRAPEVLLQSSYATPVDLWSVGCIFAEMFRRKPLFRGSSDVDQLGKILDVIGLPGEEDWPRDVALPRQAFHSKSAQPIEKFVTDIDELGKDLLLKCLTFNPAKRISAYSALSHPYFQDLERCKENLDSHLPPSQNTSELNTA
# Sequence (P30281 whole entry partner): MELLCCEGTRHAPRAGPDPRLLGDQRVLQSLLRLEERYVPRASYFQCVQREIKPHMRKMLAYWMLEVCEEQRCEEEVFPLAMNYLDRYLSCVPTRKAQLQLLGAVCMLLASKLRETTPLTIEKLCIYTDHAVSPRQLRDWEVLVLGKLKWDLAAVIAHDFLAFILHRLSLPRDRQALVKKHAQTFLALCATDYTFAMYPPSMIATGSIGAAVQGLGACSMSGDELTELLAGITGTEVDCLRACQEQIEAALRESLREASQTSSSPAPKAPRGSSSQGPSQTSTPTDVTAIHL
# Assay Text: Inhibition assay, microfluidic LabChip (Nanosyn)
# Type: biochemical
# Conditions Used: Table 3b; read-out: CDK6 CyclinD3 IC50
Quantity Kind: IC50 (nM)
Report only the number, with the unit nM understood.

Reported IC50 for CN(C)C(=O)c1cc2cnc(Nc3ccc(N4CCNCC4)cn3)nc2n1C12CC(C1)C2 [Compound A86] was 20.1

Reported IC50 for CN(C)C(=O)c1cc2cnc(Nc3ccc(C4=CCNCC4)cn3)nc2n1C12CC(C1)C2 [Compound A87] was 20

Reported IC50 for CN(C)C(=O)c1cc2cnc(Nc3ccc(N4CCNCC4)cc3)nc2n1C12CC(C1)C2 [Compound A83] was 15

Reported IC50 for CN(C)C(=O)c1cc2cnc(Nc3ccc(N4CC5(CNC5)C4)cc3)nc2n1C12CC(C1)C2 [Compound A48] was 44

Reported IC50 for CN1CCN(c2ccc(Nc3ncc4cc(C(=O)N(C)C)n(C56CC(C5)C6)c4n3)cc2)CC1 [Compound A84] was 6.1

The origin of these recorded values is patent US20220056037A1.
